The values you see were collected from patent US12516056B2.

# SUBJECT OF TEST: Recombinant JAK1 (Homo sapiens, UniProt P23458)
# Construct: purchased Carna Biosciences
# Sequence (P23458 whole entry): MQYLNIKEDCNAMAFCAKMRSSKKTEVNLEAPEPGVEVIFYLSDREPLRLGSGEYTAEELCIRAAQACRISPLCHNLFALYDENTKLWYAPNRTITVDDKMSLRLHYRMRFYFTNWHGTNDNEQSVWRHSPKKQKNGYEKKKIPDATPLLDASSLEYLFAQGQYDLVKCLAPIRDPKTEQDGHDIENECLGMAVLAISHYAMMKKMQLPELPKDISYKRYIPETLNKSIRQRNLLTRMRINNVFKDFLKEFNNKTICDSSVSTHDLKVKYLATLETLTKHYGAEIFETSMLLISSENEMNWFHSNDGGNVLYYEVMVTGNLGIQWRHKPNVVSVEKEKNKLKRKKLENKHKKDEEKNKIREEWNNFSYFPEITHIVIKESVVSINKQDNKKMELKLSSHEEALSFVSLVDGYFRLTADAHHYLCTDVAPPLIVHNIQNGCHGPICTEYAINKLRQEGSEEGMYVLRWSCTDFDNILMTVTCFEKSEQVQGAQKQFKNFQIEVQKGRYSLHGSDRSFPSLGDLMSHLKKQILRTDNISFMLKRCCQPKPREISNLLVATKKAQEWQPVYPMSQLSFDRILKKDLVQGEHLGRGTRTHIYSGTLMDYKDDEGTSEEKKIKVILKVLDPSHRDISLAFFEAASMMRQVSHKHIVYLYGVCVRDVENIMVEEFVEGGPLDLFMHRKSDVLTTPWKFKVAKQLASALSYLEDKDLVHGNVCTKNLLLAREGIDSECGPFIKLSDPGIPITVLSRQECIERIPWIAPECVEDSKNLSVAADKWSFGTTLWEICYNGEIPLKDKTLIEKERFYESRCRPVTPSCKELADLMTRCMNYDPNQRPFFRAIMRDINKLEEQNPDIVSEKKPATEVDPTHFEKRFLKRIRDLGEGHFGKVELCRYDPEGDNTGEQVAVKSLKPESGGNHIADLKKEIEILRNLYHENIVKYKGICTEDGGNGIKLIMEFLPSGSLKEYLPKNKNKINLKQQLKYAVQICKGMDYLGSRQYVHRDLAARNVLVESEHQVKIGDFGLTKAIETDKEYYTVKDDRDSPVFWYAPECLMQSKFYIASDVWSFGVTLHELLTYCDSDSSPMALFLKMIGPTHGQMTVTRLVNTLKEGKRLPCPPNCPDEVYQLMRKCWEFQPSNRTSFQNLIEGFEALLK
# METHOD: JAK biochemical assay (LANCE Ultra TR-FRET), JAK1
# CONDITION PARAMETERS: recombinant JAK1, TR-FRET; read-out: Biochemical Assay (μM) JAK1
Assignment: determine reported IC50 for the given molecules.

Please look up its IC50: Cc1cc(S(C)(=O)=O)ccc1NC(=O)N1CCN(c2ccnc3[nH]c(=O)[nH]c23)CC1 > 1 µM

Would you mind telling me what IC50 value was observed for N#CCCC(c1ccc(-n2cc(-c3ccnc4[nH]cnc34)cn2)nc1)C(F)(F)F (stereo not drawn) ? > 0.1 µM

# IC50 lookup, item CC1CN(C(=O)n2cc(-c3ccnc4[nH]cnc34)cn2)CC1C#N (stereo not drawn) > 10 µM

Query: IC50; subject: CNCCC(c1ccc(-n2cc(-c3ccnc4[nH]cnc34)cn2)nc1)C(F)(F)F (stereo not drawn) [Example 1200] 0.023 µM

Using the record for N#CCC(=O)NCc1ccc(-n2cc(-c3ccnc4[nH]cnc34)cn2)nc1 , report its IC50. > 0.5 µM

Which IC50 reading was recorded for the molecule O=C(NCC(F)(F)F)n1cc(-c2ccnc3[nH]c(-c4ccccc4)nc23)cn1 ? < 0.5 µM

###

# SUBJECT OF TEST: Recombinant JAK1 (Homo sapiens, UniProt P23458)
# Construct: purchased Carna Biosciences
# METHOD: JAK biochemical assay (LANCE Ultra TR-FRET), JAK1
# CONDITION PARAMETERS: recombinant JAK1, TR-FRET; read-out: Biochemical Assay (μM) JAK1
I'd be grateful if you could share measured IC50 for these entries.

Give the measured IC50 of CC(C)N(CCC(c1ccc(-n2cc(-c3ccnc4[nH]cnc34)cn2)nc1)C(F)(F)F)C(C)C (stereo not shown) [Example 1211] . < 0.1 µM

Name the recorded IC50 for CC(C)NC(=O)CCC(O)(c1ccc(-n2cc(-c3ccnc4[nH]cnc34)cn2)nc1)C(F)(F)F (stereo not shown) [Example 1238] . 0.003 µM

Recorded IC50 for O=C(CN1CCN(c2ccnc3[nH]c(=O)[nH]c23)CC1)NCC(F)(F)F [Example 1025] , please? > 10 µM

Which measured IC50 value corresponds to CS(=O)(=O)CC(Cc1ccc(-n2cc(-c3ccnc4[nH]cnc34)cn2)nc1)C(F)(F)F (stereo not shown) [Example 1194] ? > 0.5 µM

Consider the compound shown here: N#Cc1ccc(-n2cc(-c3ccnc4[nH]cnc34)cn2)nc1 [Example 1079] What is its recorded IC50? > 10 µM

Fill in the blank: the reported IC50 of CC(C)NC(=O)CCC(c1ccc(-n2cc(-c3ccnc4[nH]cnc34)cn2)nc1)C(F)(F)F (stereo not shown) [Example 1210] is ____. < 0.1 µM

If you can, please state the reported IC50 value of CS(=O)(=O)CCNC(=O)N1CCN(c2ccnc3[nH]c(=O)[nH]c23)CC1 [Example 1013] . > 10 µM

Fill in: IC50 of CC(C(N)=O)c1ccc(-n2cc(-c3ccnc4[nH]cnc34)cn2)nc1 (stereo not shown) [Example 1108] is ___ > 0.1 µM

Item under review: CN1CCC([C@](O)(c2ccc(-n3cc(-c4ccnc5[nH]cnc45)cn3)nc2)C(F)(F)F)C1 (stereo partly shown) [Example 1234] . Reported IC50? 0.006 µM

Endpoint output: IC50 of N#CCC(NC(=O)n1cc(-c2ccnc3[nH]c(=O)[nH]c23)cn1)C1CCCC1 (stereo not shown) [Example 1039] . Value? < 0.5 µM
